System: SN12C renal
Assay: NCI-60 one-dose screen, 48 h
Conditions: 10 µM unless noted
The panel holds about 83,000 compounds, 20% with a hit somewhere; the sample as a whole holds those more often. The source made the active and inactive calls. The calls were made as follows: active = growth percent below 10; inactive = the rest.
Please reply with one of these outcomes: active, inactive

State the result this test recorded for CCCN1CCN(c2ccc3nc(-c4ccc5nc(-c6ccc(OCC)c(OCC)c6)[nH]c5c4)[nH]c3c2)CC1 .
active

State the result this test recorded for [2H]c1nc(Nc2ncc(F)c(-c3cc(F)c4nc(C)n(C(C)C)c4c3)n2)c([2H])c([2H])c1CN1CCN(C([2H])([2H])C([2H])([2H])[2H])CC1 .
inactive

State the result this test recorded for O=C(NCCOCCOCCNc1cccc2c1C(=O)N(C1CCCNC1=O)C2=O)c1cc2c(o1)C(=O)c1ccccc1C2=O (stereo not given) .
active

State the result this test recorded for Cc1cc(-c2ccccc2)cc(SC#N)[n+]1[O-] .
inactive

State the result this test recorded for Cc1cn(C2CCCCC2)c(=O)[nH]c1=O .
inactive

State the result this test recorded for CC(=O)C(C(C)=O)c1nc2sc3cc(Cl)ccc3n2c(=N)c1C#N .
inactive

State the result this test recorded for Nc1ccc(S(=O)(=O)Nc2ccsc2-c2nc(-c3ccccc3)no2)cc1 .
inactive

State the result this test recorded for CNC=O .
inactive

State the result this test recorded for Clc1ccc2c(NCCCN3CCN(c4nc(N5CCOCC5)nc5ccccc45)CC3)ccnc2c1 .
inactive

State the result this test recorded for CCOc1ccc2nc(-c3cccc(OCC(=O)NC(C)C)c3)nc(Nc3ccc(-c4cn[nH]c4)cc3)c2c1 .
inactive

State the result this test recorded for CCn1nc(C#Cc2c(C)ccc3c(Nc4ccc(Cl)cc4)nccc23)c2c(N)ncnc21 .
inactive

State the result this test recorded for CN(C)c1ccc2cc(-c3ccccc3F)c(N)nc2c1 .
inactive

State the result this test recorded for COc1ccc(-n2sc(=O)n(Cc3ccc(COC(=O)C(C)c4ccc(CC(C)C)cc4)cc3)c2=O)cc1 (stereo not given) .
inactive

State the result this test recorded for CCCCCOC(=O)c1ccc(NC(=O)CNCC(C)C)cc1 .
inactive

State the result this test recorded for CCOC(=O)c1nnn(-c2ccccc2)c1C1=CN(C)CCC1 .
inactive

State the result this test recorded for CCCCCCCCN(CCCCCCCC)C(=N)c1ccnc2ccccc12 .
active

State the result this test recorded for CCCCN1CCN(c2ccc3nc(-c4ccc5nc(-c6ccc(OCC)c(OCC)c6)[nH]c5c4)[nH]c3c2)CC1 .
inactive

State the result this test recorded for Nc1nc(I)c2ncn(C3OC(CO)C(O)C3O)c2n1 (stereo not given) .
inactive

State the result this test recorded for Nc1ccn(C2OC(F)(CO)C(O)C2F)c(=O)n1 (stereo not given) .
inactive

State the result this test recorded for C=C(C)[C@@H]1CC[C@]2(CNCCO)CC[C@]3(C)[C@H](CC[C@@H]4[C@@]5(C)CCC(N)[C@@](C)(CO)[C@@H]5CC[C@]43C)[C@@H]12 (stereo not given in full) .
active

---

So I've got a bunch of compounds here, and I need their growth values.
Test system: A549/ATCC NSCLC
Assay: NCI-60 one-dose screen, 48 h (100 = growth as untreated, 0 = no growth, -100 = all killed)
Settings: 10 µM unless noted
About 83,000 compounds went through this panel and 20% of them were active in at least one assay; those are over-represented in the sample as a whole. Active and inactive are the calls of the source. How the source made its calls: active means growth percent below 10; inactive means the rest.

What does the data say about its growth? Entry: N#Cc1c(N)nc2c(nnn2-c2cccc(C(F)(F)F)c2)c1N
78% (inactive)

What does the data say about its growth? Entry: Cc1c2c(cn1Cc1ccccc1)CCc1cn[nH]c1-2
99.3% (inactive)

What does the data say about its growth? Entry: CC1(C)CC(=O)c2c(ccc(C(=O)C[C@H](N)CO)c2N)O1
34.7% (inactive)

What does the data say about its growth? Entry: CC(=O)Nc1nccs1
99.3% (inactive)

What does the data say about its growth? Entry: COc1ccc(Oc2nc(Nc3ccc(N4CCCCC4)nc3)ncc2NC(=O)c2cc(OC)cc(OC)c2)cc1
41.6% (inactive)

What does the data say about its growth? Entry: CC(C)(C)N1CC(OC(N)=O)C1
71.8% (inactive)

---

Tested on: UACC-62 melanoma
Experiment: NCI-60 one-dose screen, 48 h (100 = growth as untreated, 0 = no growth, -100 = all killed)
Details: 10 µM unless noted
This is part of a sample that, as a whole, favours compounds with a hit. Of some 83,000 tested, about 20% had one in any assay.
assay_metric: growth (%)
# number only, unit % dropped from output

What does the data say about its growth? Entry: CCOC(=O)c1sc2ccc(NCc3nc[nH]c3C)cc2c1NC(=O)c1cc(OC)c(OC)c(OC)c1
92.9

What does the data say about its growth? Entry: C#C[C@]1(O)CC[C@H]2[C@@H]3CC=C4c5sc(N=C(N)N)nc5CC[C@]4(C)[C@H]3CC[C@@]21C
-51.7

What does the data say about its growth? Entry: CCN(CC)c1ccc(Nc2ccc(CC(=O)c3ccccc3)cc2)cc1
78.5

What does the data say about its growth? Entry: CN(C)c1ccc(C#Cc2c(F)cccc2Cl)cc1
87.6

What does the data say about its growth? Entry: CCOC(=O)c1c2c(c(C)n1C)-c1nn(Cc3ccc(OC)cc3)cc1CC2
68.9

What does the data say about its growth? Entry: CCN(CC)CCNc1ccc(C)c2sc3cc(C)ccc3c(=O)c12
-15.2

What does the data say about its growth? Entry: Nc1ccc(-c2cc3c(Nc4ccc(OCc5cccc(F)c5)c(Cl)c4)ncnc3s2)cc1
55.7

What does the data say about its growth? Entry: COc1cc(C(=O)/C=C/c2c(-c3ccc(F)cc3)nc3ncccn23)cc(OC)c1OC
52.2

What does the data say about its growth? Entry: CN(C)CCOC(=O)Nc1ccc(Cl)cc1
97.2

What does the data say about its growth? Entry: CNC=O
96.2

What does the data say about its growth? Entry: COc1cc(/C=C/C(=O)c2cccc(-n3cc(-c4ccccc4)[nH]c3=O)c2)cc(OC)c1OC
-86.3

What does the data say about its growth? Entry: O[C@H]1CO[C@H]2[C@@H]1OC[C@@H]2Oc1ccc(Nc2nc(Nc3ccc(F)c(Cl)c3)ncc2F)cc1Cl
89.4

What does the data say about its growth? Entry: COC(=O)[C@]12CC[C@@H](C)[C@H](C)[C@@H]1C1=CC[C@@H]3[C@@]4(C)C(C=O)=C[C@@](C)(CO)C4=CC[C@@]3(C)[C@]1(C)CC2
42.9

What does the data say about its growth? Entry: Clc1ccc(-c2nnc(Cn3ccnc3)o2)cc1
90.2

What does the data say about its growth? Entry: CCN1CCN(c2ccc(Nc3cc(-c4cccnc4Nc4c(Cl)c(OC)cc(OC)c4Cl)ncn3)cc2)CC1
85.9

What does the data say about its growth? Entry: COC(=O)CCCNC(=O)C(=O)c1c(O)c(O)c(C(C)C)c2cc(C)c(-c3c(C)cc4c(C(C)C)c(O)c(O)c(C(=O)C(=O)NCCCC(=O)OC)c4c3O)c(O)c12
-35.6

What does the data say about its growth? Entry: Cc1cc(-c2ccccc2)cc(SC#N)[n+]1[O-]
28.8

What does the data say about its growth? Entry: Cc1c2c(cn1Cc1ccccc1)CCc1cn(C)nc1-2
70.4

What does the data say about its growth? Entry: c1ccc2c(c1)ncn2-c1nc2ccccc2n2c1nc1ccccc12
77.3

What does the data say about its growth? Entry: N#Cc1c(N)n2c(nc1=Nc1ccc(Cl)cc1)sc1cc(Cl)ccc12
63.4

What does the data say about its growth? Entry: O=C1Nc2ccccc2SC1C1SC(=S)N(Cc2ccccc2)C1=O (stereo unspecified)
98.5

What does the data say about its growth? Entry: CCOC(=O)C1=C(C)NC(SCc2nnc(-c3ccc(Cl)cc3)o2)=NC1c1ccc(Cl)cc1Cl (stereo unspecified)
51.6

What does the data say about its growth? Entry: O=C1c2ccccc2C2(c3ccc(O)cc3)c3ccccc3Oc3cccc1c32 (stereo unspecified)
30.8

What does the data say about its growth? Entry: NC(N)=N/N=C(/c1ccccc1)c1ccc(N)cc1
91.2

What does the data say about its growth? Entry: CN(C)c1cnccn1
98.6

What does the data say about its growth? Entry: O=C1CSC(c2ccccc2O)N1c1nnc(Cn2cnnc2)o1 (stereo unspecified)
90.8

What does the data say about its growth? Entry: Cn1cc(Nc2nccc(-c3ccc(N4CCCC4)c(C#N)c3)n2)cn1
28.8

What does the data say about its growth? Entry: COc1cc2nc(Nc3ccc(F)cc3)nc(N)c2cc1OC
94

What does the data say about its growth? Entry: COc1cc2c(c(OC)c1OC)C(=O)/C(=C/c1cc(C)c(O)c(C)c1)S2
50.8

What does the data say about its growth? Entry: COc1ccc(OC)c(/C=C2\COc3ccc(O)c(O)c3C2=O)c1
28.9

What does the data say about its growth? Entry: CCCCOC(=O)c1ccc(NC(=O)C(C)N2CCOCC2)cc1 (stereo unspecified)
95.1

What does the data say about its growth? Entry: CN(C)c1ccc(/C=C/c2c(F)cccc2F)cc1
97.9

What does the data say about its growth? Entry: COc1ccc(/C(C)=N/NS(=O)(=O)c2ccc(C)cc2)cc1OC
105

What does the data say about its growth? Entry: CC1=NN(c2cccc(Cl)c2)C(=O)/C1=C\c1cn(CC(O)CN2CCCCC2)c2ccccc12 (stereo unspecified)
-47.4

What does the data say about its growth? Entry: CCCCCCCC/C=C\CCCCCCCC(=O)Oc1cccc2cccnc12
99.8

What does the data say about its growth? Entry: NC(=O)CC1(O)C=C(Br)C(=O)C(Br)=C1
108

What does the data say about its growth? Entry: CCn1c(Sc2nnc(NC(=O)CCN3CCCC3)s2)nc2c1c(=O)n(C)c(=O)n2C
101

What does the data say about its growth? Entry: C=C(CNCCc1ccc(O)cc1)[C@@H]1CC[C@]2(COC3CCCCO3)CC[C@]3(C)[C@H](CC[C@@H]4[C@@]5(C)CCC(NCCO)C(C)(C)[C@@H]5CC[C@]43C)[C@@H]12 (stereo partly specified)
-85.9

What does the data say about its growth? Entry: O=C(NCc1cn(Cc2cccc(Oc3ccccc3)c2)nn1)c1cccnc1NCc1ccc(Cl)cc1
27.8

What does the data say about its growth? Entry: O=C1c2cccc3c(-c4ccc(-c5nc6c7ccccc7c7ccccc7c6[nH]5)cc4)ccc(c23)C(=O)N1CCN1CCNCC1
106

What does the data say about its growth? Entry: Cc1c(Cl)cccc1NS(=O)(=O)c1ccccc1
102
